# reported viability at 28.5 h, 10 µM; entries follow
- Experiment Notes: in vitro
- Measurement Conditions: human, hela cells, % viability
Return type: number; implicit unit %.

Examples with answers:
Cc1nc(CN2CCN(c3ccc4nnnn4n3)CC2)cs1 :: 79.3
Cc1cc(NC(=O)c2ccco2)c2ccccc2n1 :: 106
Cc1ccc(-n2cc(CN(C)CC3(C)COC3)cn2)cc1 :: 93
CC(C)(C)OC(=O)N1CCC(c2nc3ccccc3cc2N)CC1 :: 82.6

q: Please look up its viability at 28.5 h, 10 µM: COc1ccnc(NC(c2cnn(C)c2)[C@H]2C[C@@H](O)C2)n1 (stereo partly shown)
a: 97.8

q: Record request: viability at 28.5 h, 10 µM value, item `O=C(O)CCNc1cc2ccccc2cc1C(=O)O`
a: 80.7

q: Which viability at 28.5 h, 10 µM is reported for this compound? `O=S(=O)(c1ccc(C(F)(F)F)cc1Cl)N1CCCN(Cc2ccc(F)cc2F)CC1`
a: 91.8

q: viability at 28.5 h, 10 µM for `C/C(=N\c1ccccc1C(F)(F)F)c1ccncc1` ?
a: 86.6

q: # input compound: `O=C(Nc1nnc(C2CCCCC2)s1)c1ccccc1I` ; wanted: its viability at 28.5 h, 10 µM
a: 114

q: Any idea what viability at 28.5 h, 10 µM was measured for O=C(CC1C(=O)N(c2cccc(Cl)c2)C(=O)N1CCc1cccs1)Nc1ccccc1 (stereo not shown) ?
a: 79.7

###

viability at 28.5 h, 10 µM values by entry
- Experiment Notes: in vitro
- Measurement Conditions: human, hela cells, % viability
Write down the numeric answer in % and omit the unit.

The cases that follow already have their viability at 28.5 h, 10 µM on record.
CCCC(=O)N1CCCCC1c1c(-c2onc(C)c2C)cnn1C (stereo not shown) [CBK282259] :: 94.7
CN(C)CC1CCCN(C(=O)c2cc3cc(Cl)ccc3n2C)C1 (stereo not shown) [CBK282121] :: 111
COc1cccc(CN(C)CCN(C)C)c1O [CBK261905] :: 102
CN(C)c1ccc(Nc2cc(-c3ccco3)ncn2)cc1 [CBK090946] :: 90.3
Cc1cnc(CNC(=O)c2cnoc2-c2ccccc2)cn1 [CBK154926] :: 98

q: Requested field: viability at 28.5 h, 10 µM. Item: CCCCC1CCC(C(=O)Nc2ncccn2)CC1 (stereo not shown) [CBK027423]
a: 113

q: Item CCOc1ccccc1N1CCN(C(=O)c2cc(-c3ccccc3C)nc3ccccc23)CC1 [CBK091950] has what recorded viability at 28.5 h, 10 µM?
a: 104

q: So what does the record say about viability at 28.5 h, 10 µM for COc1cc(CCN2CCCCC2)c(C(C)n2cncn2)cc1OC (stereo not shown) [CBK023837G] ?
a: 90.3

q: Entry under review: O=C(Cc1ccc(F)cc1)NCCn1nc(-c2ccco2)ccc1=O [CBK283706] . Reported viability at 28.5 h, 10 µM?
a: 86.4

q: For the compound shown here, COc1cc(Cn2ncc(N3CCCCC3)cc2=O)cc(OC)c1 [CBK307662] , give the reported viability at 28.5 h, 10 µM.
a: 97.1

###

- Experiment Notes: in vitro
- Measurement Conditions: human, hela cells, % viability
Property Measured: viability at 28.5 h, 10 µM (%)
Record the value in %, omitting the unit from your answer.

Worked set:
COc1ccccc1CN1CCC(Cc2ccccc2-c2ccc(C)cc2C)(C(=O)O)CC1 :: 88.4
CC(=O)Nc1ccc(CN(C)c2c(C)nc3ccc(C(=O)N(C)CCN(C)C)cn23)cc1 :: 109
O=C(Nc1ccccc1)Nc1ccc2c(c1)S(=O)(=O)c1cc(NC(=O)Nc3ccccc3)ccc1-2 :: 94.6
COc1ccccc1-c1cnc(N)c(N2CCN(CCO)CC2)n1 :: 96.1
c1csc(-c2cncc(NCc3ccncc3)n2)c1 :: 94.6

Turning to the following molecule.
q: Need viability at 28.5 h, 10 µM of `COc1ccc(CNc2nc(-c3ccc(C)cc3)nn2C(=O)c2cccc([N+](=O)[O-])c2)cc1` , thanks.
a: 67.9

###

- Experiment Notes: in vitro
- Measurement Conditions: human, hela cells, % viability
Property Measured: viability at 28.5 h, 10 µM

Recorded results for 5 compounds are shown here.
Nc1nonc1-c1nc2ccccc2n1Cc1ccc(-c2nn[nH]n2)cc1 [CBK267648] :: 91.3%
COc1ccc(Cl)cc1NC(=O)CN(c1cccc(C(C)=O)c1)S(C)(=O)=O [CBK267835] :: 108%
CCOc1cccc2cc(C(=O)N3CCN(Cc4ccccc4)CC3)c(=O)oc12 [CBK270259C] :: 74.3%
CCn1nc(C(C)C)cc1C(=O)N1CC2(CCNCC2)CC1C(=O)O (stereo not drawn) [CBK307179] :: 90.9%
CCCNS(=O)(=O)c1cc(C(=O)O)ccc1OC [CBK287152] :: 98%

q: Would you kindly share the measured viability at 28.5 h, 10 µM for O=C(O)C1CCCCC1C(=O)Nc1ccc(S(=O)(=O)N2CCOCC2)cc1 (stereo not drawn) [CBK268010] ?
a: 104%

q: What viability at 28.5 h, 10 µM value was documented for this compound, COc1ccc(CN2CCC(Oc3nccnc3OCCN3CCOCC3)CC2)cc1 [CBK082922T] ?
a: 90.8%

q: Would you mind telling me what viability at 28.5 h, 10 µM value was observed for CCOC(=O)N1CCCC(=O)c2c(C(=O)O)cn(C)c21 [CBK005301] ?
a: 86.4%

q: Fill in the blank: the reported viability at 28.5 h, 10 µM of CCOC(=O)c1ncoc1-c1ccc(Cl)cc1Cl [CBK020578] is ____.
a: 90.2%

###

- Experiment Notes: in vitro
- Measurement Conditions: human, hela cells, % viability
Property Measured: viability at 28.5 h, 10 µM
Report the figure along with its unit, number first.

Past entries and their recorded results:
Oc1ccc(Nc2ncnc3scc(-c4ccccc4)c23)cc1 [CBK269146C] :: 108%
COc1cc(-c2nccnc2NCCc2c[nH]c3ccccc23)cc(OC)c1OC :: 102%
O=C(C1CC1)N1CCCC(c2nc(-c3cccs3)no2)C1 (stereo not drawn) :: 97.1%
FC(F)(F)c1cccnc1Sc1nc[nH]n1 :: 102%
COc1cc(CNc2cncc(-c3cccc(NC(C)=O)c3)n2)cc(OC)c1OC :: 100%

q: Quick check: viability at 28.5 h, 10 µM of C[C@@H]1CN(c2ccc(C(F)(F)F)c(OCc3ccccc3)n2)CCN1 [CBK003987A] ?
a: 94%

q: Look up viability at 28.5 h, 10 µM for this compound: `NCCc1c(C23CC4CC(CC(C4)C2)C3)[nH][nH]c1=O`
a: 86.5%

q: Given the compound CCN1C(=O)CC(n2c(C)nc3ccccc32)C1=O (stereo not drawn) , what is its reported viability at 28.5 h, 10 µM?
a: 108%

q: Field request: viability at 28.5 h, 10 µM | item: CS(=O)(=O)Nc1nccnc1N1CCNCC1 [CBK074045T]
a: 105%

q: Which value of viability at 28.5 h, 10 µM has been reported for `CC(=O)Nc1nc(-c2cc3ccccc3oc2=O)cs1` in the records?
a: 106%

q: Can you look up the measured viability at 28.5 h, 10 µM of `O=C(Cn1cc(Br)ccc1=O)NC1CCN(Cc2ccccc2)CC1` for me?
a: 95.6%

q: Field request: viability at 28.5 h, 10 µM | item: `NC(=O)c1ccccc1NC(=O)CN1CCN(Cc2cccc(F)c2)CC1`
a: 85.9%

q: Could you share which viability at 28.5 h, 10 µM value was measured for Cc1nc2cc(C(=O)N3CCCCC3CN3CCOCC3)ccc2[nH]1 (stereo not drawn) ?
a: 109%

q: Endpoint output: viability at 28.5 h, 10 µM of Cc1cc(Br)ccc1C(=O)N1CC(C(N)=O)CCC1C (stereo not drawn) . Value?
a: 83.2%

q: Return reported viability at 28.5 h, 10 µM; argument: `COc1ccc(-c2ccc3c(c2)C(=O)N2CC[C@H](NC(=O)CCC(=O)O)[C@H]2C(=O)N3)cc1`
a: 84.4%

q: Quick one: viability at 28.5 h, 10 µM for N#CC1C(=S)NC2=C(CCCC2)C12CCCCC2 (stereo not drawn) ?
a: 103%

q: Could you share which viability at 28.5 h, 10 µM value was measured for `CCN(CC)C(=O)CN(CCc1ccc(OC)c(OC)c1)C(=O)NCc1cc(C)on1` ?
a: 96.1%

q: viability at 28.5 h, 10 µM lookup needed for `O=C(N[C@H]1C[C@H]2C(=O)Nc3ccccc3C(=O)N2C1)c1cccnc1` , thanks.
a: 110%

q: # viability at 28.5 h, 10 µM lookup, item `CCCc1onc(S(=O)(=O)c2ccc(C)cc2)c1NC`
a: 84.3%

Cited source for all entries: paper PMC12040169
